Molecular target: T1, recombinant human CSF-1R (form not stated) (human, UniProt P07333 20-512, limits assumed)
T1 construct: for the ELISA no species is stated; also called recombinant CSF-1R; recombinant CSF-1R protein
T1 sequence (P07333 20-512 limits assumed): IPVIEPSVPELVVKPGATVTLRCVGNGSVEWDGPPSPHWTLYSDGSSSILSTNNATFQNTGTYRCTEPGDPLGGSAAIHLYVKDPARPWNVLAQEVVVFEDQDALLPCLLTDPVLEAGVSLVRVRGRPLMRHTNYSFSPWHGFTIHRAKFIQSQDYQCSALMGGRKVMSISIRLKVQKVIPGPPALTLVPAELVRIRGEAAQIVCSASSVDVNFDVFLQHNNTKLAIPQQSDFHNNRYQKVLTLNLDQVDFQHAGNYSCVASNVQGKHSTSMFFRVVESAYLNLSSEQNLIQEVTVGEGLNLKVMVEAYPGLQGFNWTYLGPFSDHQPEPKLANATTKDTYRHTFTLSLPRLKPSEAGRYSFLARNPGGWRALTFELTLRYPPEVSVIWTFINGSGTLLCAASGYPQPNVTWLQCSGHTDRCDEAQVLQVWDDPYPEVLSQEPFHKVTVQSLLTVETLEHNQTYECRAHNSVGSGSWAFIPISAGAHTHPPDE
Assay: BIAcore, mean of 3 (fourth row, unlabelled)
reported_metric: kon (M⁻¹ s⁻¹)

>>> recorded_result("chimeric antibody 969 (rat variable regions, human gamma-4 heavy chain constant region and human kappa chain constant region) (antibody, human IgG4, V domains shown, Alexa-488 label in the cell-based affinity assay; not carried by the letters., Full-length human IgG4 (S241P)/kappa chimeric; also called Ab969) VH: QVTLKESGPGILQPSQTLSLTCTFSGFSLTTYGMGVGWIRQPSGKGLEWLANIWWDDDKYYNPSLKNRLTISKDTSNNQAFLKLTNVHTSDSATYYCARIGPIKYPTAPYRYFDFWGPGTMVTVSS VL: DIQMTQSPASLSASLGETVSIECLASEDIYDNLAWYQKKPGKSPHLLIYYASSLQDGVPSRFSGSGSGTQYSLKINSLESEDAATYFCLQDSEYPWTFGGGTKLELKR")
"2.77e+06"
